System: H1792 LUAD cells
experimentSummary: Chemical proteomics target profiling in live H1792 cells (label-free LC-MS/MS, comparison with control probe 22 and panel-wide cross-comparison)
Assay type: binding, human
runConditions: compared to control probe and probe panel
assayMetric: prominent target protein predominantly enriched by the probe

molecule: C#CCCC1(CCC(=O)N2CCC(Oc3ncc(C(F)(F)F)cc3Cl)C2)N=N1 (stereo not shown)
recordedResult: ME3

molecule: C#CCCC1(CCC(=O)N2CCC(COc3nc4ccccc4nc3C)CC2)N=N1
recordedResult: GSTZ1

molecule: C#CCCC1(CCC(=O)Nc2ccc3c(c2)N(CC(C)C)C(=O)C(C)(C)CO3)N=N1
recordedResult: MMGT1
